# Study System: Mgal-WhiA (Mycoplasma gallisepticum S6, UniProt A0A0F6CKV5 1-295)
# Method Description: EMSA; no ATP; total binding; EMSA: 20 mM carbonate pH 9.8, 6% glycerol, 37 C 10 min, gel at 10 C; MST: PBS (10 mM Na phosphate pH 7.4, 140 mM NaCl, 3 mM KCl), 0.05% Tween-20, 50 mM imidazole, 50 nM duplex, 20 C
# Details: protein: recombinant; label: 5' FAM (EMSA) or HEX (MST) on strand 1; blunt
Endpoint Name: Kd (nM)
Write the number in nM without appending the unit.

Lab book: Kd of rpsJ WT (dsDNA) DNA 1: AAAGATTGCTGATACACCAAAAACCGTTGTCAAGTATCAG DNA 2: CTGATACTTGACAACGGTTTTTGGTGTATCAGCAATCTTT noted as 700

// data source = paper PMC11701221
